Hey, just so you know, these numbers are from patent US9181273B2.

For each of the compounds below, state its pIC50.
# SYSTEM TESTED: human NaV subtype, like NaV 1.7 (Homo sapiens)
# EXPERIMENTAL PROTOCOL: E-VIPR optical membrane potential assay with electrical stimulation
# Assay type: cell-based
# STATED CONDITIONS: active against one or more sodium channels; assay and NaV subtype not specified for Table 3; read-out: IC50 Binned Activity Data
pIC50: −log10 of the molar value.

Worked examples, 5 compounds total:
# COMPOUND, VAL
measured = [
    ("COCC1CN(c2ccc(C#N)cc2)CC2(CCN(C(=O)c3ccc(OC(C)C)c(C)c3)CC2)O1 (centres unmarked)", "> 5.70"),
    ("COCC1CN(c2ncccn2)CC2(CCN(C(=O)c3ccc(C4(O)CCCCC4)cc3)CC2)O1 (centres unmarked)", "> 5.70"),
    ("CCOCCN1CC(COC)OC2(CCN(C(=O)c3ccc(OC(C)C)c(C)c3)CC2)C1 (centres unmarked)", "> 5.70"),
    ("COc1cc(C(=O)N2CCC3(CC2)CN(CC(F)F)CC(c2cccc(C)n2)O3)ccc1OC(C)C (centres unmarked)", "5.30 to 5.70"),
    ("Cc1cc(C(=O)N2CCC3(CC2)CN(CC(F)F)CC(c2ccccc2)O3)ccc1OC(C)C (centres unmarked)", "> 5.70"),
]

Please supply pIC50 for each of the following items, keeping them in order.
1. COCC1CN(c2ncccn2)CC2(CCN(C(=O)c3ccc(C4(O)CCC4)c(C)c3)CC2)O1 (centres unmarked)
2. CC(C)(C)S(=O)(=O)c1ccc(C(=O)N2CCC3(CC2)CN(CC(F)(F)F)CC(c2ccccc2)O3)cc1 (centres unmarked)

1. > 5.70
2. > 5.70

Form field - read-out: pIC50; system: human NaV subtype, like NaV 1.7 (Homo sapiens); submitted item: CC#CCN1CC2(CCN(C(=O)c3ccc(OC(C)C)c(C)c3)CC2)OCC1(C)C
< 5.30

###

# SYSTEM TESTED: human NaV subtype, like NaV 1.7 (Homo sapiens, UniProt Q15858)
# Sequence (Q15858 whole entry): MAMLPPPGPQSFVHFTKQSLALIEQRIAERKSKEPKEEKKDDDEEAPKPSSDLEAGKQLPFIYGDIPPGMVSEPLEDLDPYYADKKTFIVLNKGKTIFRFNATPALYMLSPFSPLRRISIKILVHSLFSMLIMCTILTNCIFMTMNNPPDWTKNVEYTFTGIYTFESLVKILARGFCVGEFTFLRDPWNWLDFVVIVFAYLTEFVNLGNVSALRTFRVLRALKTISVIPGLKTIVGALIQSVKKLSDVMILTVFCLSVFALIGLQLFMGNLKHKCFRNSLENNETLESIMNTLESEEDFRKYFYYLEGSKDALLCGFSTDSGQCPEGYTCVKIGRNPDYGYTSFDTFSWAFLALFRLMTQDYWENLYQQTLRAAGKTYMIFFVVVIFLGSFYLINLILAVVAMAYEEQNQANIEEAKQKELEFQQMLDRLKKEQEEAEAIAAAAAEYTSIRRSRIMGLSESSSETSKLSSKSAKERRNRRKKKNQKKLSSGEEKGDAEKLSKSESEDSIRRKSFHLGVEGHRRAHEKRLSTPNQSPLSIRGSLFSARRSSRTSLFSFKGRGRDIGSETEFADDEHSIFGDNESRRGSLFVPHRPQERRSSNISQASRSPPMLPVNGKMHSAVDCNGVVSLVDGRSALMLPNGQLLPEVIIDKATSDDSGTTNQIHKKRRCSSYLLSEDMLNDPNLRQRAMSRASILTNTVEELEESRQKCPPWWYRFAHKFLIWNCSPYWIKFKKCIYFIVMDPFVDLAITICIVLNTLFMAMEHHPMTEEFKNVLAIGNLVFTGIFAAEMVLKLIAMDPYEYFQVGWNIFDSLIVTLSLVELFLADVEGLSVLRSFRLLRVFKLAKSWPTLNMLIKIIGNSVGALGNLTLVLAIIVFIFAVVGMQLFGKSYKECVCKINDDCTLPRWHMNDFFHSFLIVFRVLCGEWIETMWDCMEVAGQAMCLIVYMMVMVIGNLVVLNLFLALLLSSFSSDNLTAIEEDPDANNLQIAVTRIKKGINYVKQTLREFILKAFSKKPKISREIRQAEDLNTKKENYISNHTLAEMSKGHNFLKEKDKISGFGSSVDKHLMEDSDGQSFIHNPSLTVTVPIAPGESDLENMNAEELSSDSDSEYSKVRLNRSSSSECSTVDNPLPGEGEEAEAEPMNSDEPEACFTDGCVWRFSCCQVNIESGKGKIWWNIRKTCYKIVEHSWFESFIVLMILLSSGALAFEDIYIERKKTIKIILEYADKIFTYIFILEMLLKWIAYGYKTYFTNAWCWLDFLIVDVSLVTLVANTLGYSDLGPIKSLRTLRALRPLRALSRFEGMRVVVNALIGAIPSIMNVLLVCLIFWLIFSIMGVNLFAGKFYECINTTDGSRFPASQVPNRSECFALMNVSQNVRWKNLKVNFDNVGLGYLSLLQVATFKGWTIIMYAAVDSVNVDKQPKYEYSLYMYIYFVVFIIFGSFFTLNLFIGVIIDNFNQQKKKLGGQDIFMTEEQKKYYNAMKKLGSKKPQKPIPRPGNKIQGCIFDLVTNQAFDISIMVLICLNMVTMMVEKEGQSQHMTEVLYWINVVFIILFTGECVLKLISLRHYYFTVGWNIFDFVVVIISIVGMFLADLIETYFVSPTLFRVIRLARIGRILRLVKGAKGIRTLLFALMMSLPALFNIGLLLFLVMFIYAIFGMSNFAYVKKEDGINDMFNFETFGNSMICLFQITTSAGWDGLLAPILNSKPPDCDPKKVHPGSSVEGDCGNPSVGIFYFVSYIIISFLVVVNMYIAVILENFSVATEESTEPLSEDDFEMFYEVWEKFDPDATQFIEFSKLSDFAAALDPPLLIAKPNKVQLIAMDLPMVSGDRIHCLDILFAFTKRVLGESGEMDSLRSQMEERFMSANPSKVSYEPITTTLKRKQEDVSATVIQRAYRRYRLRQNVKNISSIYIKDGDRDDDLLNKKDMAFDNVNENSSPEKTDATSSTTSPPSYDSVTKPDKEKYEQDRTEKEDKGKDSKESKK
# EXPERIMENTAL PROTOCOL: E-VIPR optical membrane potential assay with electrical stimulation
# Assay type: cell-based
# STATED CONDITIONS: active against one or more sodium channels; assay and NaV subtype not specified for Table 3; read-out: IC50 Binned Activity Data
# Procedure: Sodium channels are voltage-dependent proteins that can be activated by inducing membrane voltage changes by applying electric fields. […] 7) Read Plate on E-VIPR. […] Data are analyzed and reported as normalized ratios of background-subtracted emission intensities measured in the 460 nm and 580 nm channels. […] The data is further reduced by calculating the initial (Ri) and final (Rf) ratios. […] The response to the stimulus R=Rf/Ri is then calculated and reported as a function of time. […]
pIC50: −log10 of the molar value.
REPORTED ENDPOINT: pIC50

Worked examples, 3 molecules total:
# MOLECULE, SYSTEM TESTED, VAL
data = [
    ("COCC1CN(c2ccc(OC)cc2)CC2(CCN(C(=O)c3ccc(OC(C)C)c(C)c3)CC2)O1 (centres unmarked) [Compound 183]", "human NaV subtype, like NaV 1.7 (Homo sapiens, UniProt Q15858)", "> 5.70"),
    ("COCCN1CC(COC)OC2(CCN(C(=O)c3ccc(OC(C)C)c(C)c3)CC2)C1 (centres unmarked) [Compound 188]", "human NaV subtype, like NaV 1.7 (Homo sapiens, UniProt Q15858)", "5.30 to 5.70"),
    ("Cc1cc(C(=O)N2CCC3(CC2)CN(c2ncccn2)C(C)(C)CO3)ccc1OC(C)C [Compound 51]", "human NaV subtype, like NaV 1.7 (Homo sapiens, UniProt Q15858)", "< 5.30"),
]

Please supply pIC50 for each of the following items, keeping them in order.
1. CCC1CN(c2ccccn2)CC2(CCN(C(=O)c3ccc(C4(O)CCCC4)c(F)c3)CC2)O1 (centres unmarked) [Compound 17]
2. Cc1cc(C2CN(CC(F)(F)F)CC3(CCN(C(=O)c4ccc(OC(C)C)c(F)c4)CC3)O2)n[nH]1 (centres unmarked) [Compound 87]

["> 5.70", "5.30 to 5.70"]

Please supply pIC50 for each of the following items, keeping them in order.
1. COc1cc(C(=O)N2CCC3(CC2)CN(CC(F)(F)F)CC(c2ccccc2)O3)ccc1OC(C)(C)C (centres unmarked) [Compound 128]
2. Cc1cn[nH]c1C1CN(CC(F)F)CC2(CCN(C(=O)c3ccc(OC(C)C)c(F)c3)CC2)O1 (centres unmarked) [Compound 298]
3. CCN1CC2(CCN(C(=O)c3ccc(OC(C)C)c(C)c3)CC2)OC(c2ccccc2)C1=O (centres unmarked) [Compound 9]

1: > 5.70; 2: > 5.70; 3: 5.30 to 5.70
